- TARGET_UNDER_TEST: hPFKFB2 Y428A mutant (Homo sapiens, UniProt O60825, Y428A)
- Sequence (O60825 whole entry Y428A): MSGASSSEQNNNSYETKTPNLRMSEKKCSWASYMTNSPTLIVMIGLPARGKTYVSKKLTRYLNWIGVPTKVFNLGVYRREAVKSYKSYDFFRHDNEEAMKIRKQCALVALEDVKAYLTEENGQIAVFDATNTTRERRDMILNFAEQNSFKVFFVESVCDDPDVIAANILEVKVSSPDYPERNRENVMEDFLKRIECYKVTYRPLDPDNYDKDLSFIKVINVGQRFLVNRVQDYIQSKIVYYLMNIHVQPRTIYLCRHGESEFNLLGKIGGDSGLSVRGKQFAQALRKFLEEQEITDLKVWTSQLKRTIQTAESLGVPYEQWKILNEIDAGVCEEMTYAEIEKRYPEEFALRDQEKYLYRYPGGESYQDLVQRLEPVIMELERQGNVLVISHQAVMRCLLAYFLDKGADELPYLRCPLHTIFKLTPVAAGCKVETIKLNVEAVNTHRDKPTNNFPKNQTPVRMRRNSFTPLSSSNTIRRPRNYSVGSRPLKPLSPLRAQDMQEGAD
- PROTOCOL_TEXT: 2-kinase inhibition assay
- Type: biochemical
- TEST_CONDITIONS: Citrate Kis, Y428A; variable substrate ATP, fixed substrate F6P 250μM
pKi: −log10 of the molar value.
RECORDED_METRIC: pKi

compound="O=C(O)CC(O)(CC(=O)O)C(=O)O [Citrate]" target_under_test="hPFKFB2 Y428A mutant (Homo sapiens, UniProt O60825, Y428A)" recorded_metric=pKi readout_value=5.61
